quantity-name: melting point

• CC(=O)c1nc2ccc(S(=O)(=O)c3ccccc3)cc2cc1O = 179 to 180 °C
• CCOCn1c(Sc2ccc(Cl)c(Cl)c2)c(Br)c(C#N)c1-c1ccc(Cl)cc1 = 105 to 107 °C
• CC(=O)Oc1cc2c(cc1C(C)(C)C)OC(C)(CCOc1ccc(CC3SC(=N)NC3=O)cc1)CC2 (stereo not given) = 175 to 178 °C
• CN1CCN(c2ccc(Nc3nc(N)c(C(=O)c4c(Cl)cc(Br)c(N)c4Cl)s3)cc2)CC1 = 180 to 182 °C
• CC1(C)CCCC(=Cc2ccc(Cl)cc2)C1(O)Cn1cncn1 (stereo not given) = 179 °C
• CCCN(CCCc1c[nH]c2ccc(F)cc12)C1COc2c(F)ccc(C(=O)NC)c2C1 (stereo not given) = 123 °C
• NC(=O)N(O)CC1CCC1 = 112 to 113 °C
• CCN(CC)C(=O)n1ccc(S(=O)c2ccccc2Cl)n1 (stereo not given) = 54 to 56 °C
• CCOC(=O)Cc1nn(Cc2nc3ccccc3n2C)c(=O)c2ccccc12 = 118 °C
• COCC(=O)Nc1ccc2ncnc(Nc3cc(Cl)c(Cl)cc3F)c2c1 = 204 to 206 °C
• CCOC(=O)c1ccc2occ(-c3ccc(SC)cc3)c2n1 = 88 to 89 °C
• Fc1cccc(F)c1-c1cncnc1 = 67 to 69 °C
• CC(=NC(C#N)=C(N)C#N)c1ccc(Cl)cc1 = 154 to 156 °C
• O=C(Nc1ccc(Cl)cc1)Nc1ccc2c(c1)OC(F)(F)O2 = 231 to 233 °C
• CN1CCC(c2c[nH]c3ccc(NC(=O)c4ccncc4)nc23)CC1 = 126 to 128 °C
• COCCNC(=O)c1cccc(-c2cccc3cc(Cc4cccc(S(C)(=O)=O)c4)sc23)c1 = 131 to 132 °C
• CNC(=O)N1CC(Oc2cccc(Br)c2)C1 = 134 to 135 °C
• Cc1[nH]c(=O)n(-c2cc(C(=O)OC(C)C)c(Cl)cc2F)c(=O)c1[N+](=O)[O-] = 202 to 205 °C
• O=C1C=CC(c2ccccc2)(c2ccccc2)[C@@H]2CN(Cc3ccccc3)C[C@H]12 (racemic) = 132 °C
• O=c1[nH]c2ccc(S(=O)CCN3CCC(Cc4ccccc4F)CC3)cc2o1 (stereo not given) = 179 to 181 °C

* * *

The compounds listed here are annotated with their melting point.
quantity-name: melting point

* CC(C)(C)c1ccc(CN(O)Cc2ccc(C(C)(C)C)cc2)cc1 | 108 to 110 °C
* CN1C(=O)CC(=O)N(c2ccccc2)C1=O | 124 °C
* CC(C#N)=C1CCN(c2ccc(N3C[C@H](CNC(=O)C(Cl)(Cl)Cl)OC3=O)cc2F)CC1 | 166 to 168 °C
* COc1ccc(S(=O)(=O)C(CC=C(C)C)(CC=C(C)C)C(=O)NO)cc1 | 93 to 96 °C
* N#CC(C(=O)Nc1ccccc1)C(=O)c1nn(-c2ccccc2)c2c1CSc1ccc(NC(=O)CCC(=O)O)cc1-2 (centres undefined) | 230 to 233 °C
* CN(C)C(N)=Nc1cc(C(F)(F)F)ccc1N1CCOCC1 | 132 to 135 °C
* CC(C)(C)c1cc(-c2noc(=O)[nH]2)cc(C(C)(C)C)c1O | 189 to 191 °C
* Cc1cc(N(C)C)nc2ccc(Br)cc12 | 81.9 to 84.1 °C
* O=c1oc2cccc(O)c2c(OCCN2CCOCC2)c1-c1ccccc1 | 206 °C
* Cc1cc(-c2cc(O)c(SCCc3ccccc3)c(=O)o2)ccc1OCc1ccccc1 | 147 to 148 °C
* O=c1c(OCCCCl)c(-c2ccc(OCc3ccccc3)c(OCc3ccccc3)c2)oc2cc(OCc3ccccc3)ccc12 | 136 to 137 °C
* Cn1cc(C(=O)O)c(=O)c2cc(F)c(N3CCCN(c4ncccn4)CC3)c(C(F)(F)F)c21 | 243 to 245 °C
* O=C(O)CCNC(=O)CNC(=O)c1csc(NC(=O)NCc2ccccc2)n1 | 174 °C
* CCCCC12CCC3=C(CCc4cc(OC)ccc43)C1CCC2=O (centres undefined) | 105 to 108 °C
* CCN1C(=O)C(C)(C)C(=O)N(C)c2cc(CN(CCn3c(=O)ccc4ccccc43)Cc3cccnc3C)ccc21 | 149 to 150 °C
* COC(=O)c1ccc(OCCNC(=O)C2Cc3ccccc3N2S(=O)(=O)c2ccc(-c3cc(C(F)(F)F)ccc3Cl)cc2)cc1Cl (centres undefined) | 70 to 76 °C
* COCCCCCCCCCCCCCCSCCC(=O)OC | 31 to 32 °C
* CCCSc1ncc(C(=O)N[C@H](C(=O)O)[C@@H](C)CC)n1Cc1ccccc1Cl | 156 to 158 °C
* C[C@@H]1OCCN(c2nc(N3CCOCC3)nc(-n3c(C(F)F)nc4ccccc43)n2)[C@@H]1C (relative stereo) | 176 to 178 °C
* Cc1ccc(S(=O)(=O)N2CCCC(S(=O)(=O)c3cccc(Cl)c3)C2)cc1 (centres undefined) | 282 to 284 °C
* CC(C(=O)NCC(=O)O)C(SC(=O)c1ccccc1)SC(=O)c1ccccc1 (centres undefined) | 113 to 114 °C
* CCNC(=O)c1cnc(SC)nc1Nc1ccc2[nH]ncc2c1 | 252 to 254 °C
* CCSC1c2cccc(O)c2C(=O)c2c(O)cccc21 | 117 to 118 °C
* Cn1cc(C(=O)NCc2ccc(Cl)cc2)c(=O)c2cc(CCCCO)oc21 | 157 to 160 °C
* COC(=O)C(=C/c1ccccc1)/C(=C\c1cc(OC)c(OC)c(OC)c1)C(=O)O | 131 to 133 °C
* CN1CCN(c2cc(Cl)cc3c2c(=O)n(Cc2ccc(F)cc2)c(=O)n3Cc2ccccc2)CC1 | 110 to 114 °C
* CC1C(=O)Oc2cc(C3CCCCC3)ccc21 (centres undefined) | 87 to 89 °C
* CCN1c2ncccc2C(=O)N(C)c2ccc(-c3ccn(C)c3)nc21 | 187 to 188 °C
* O=C(Nc1ccccc1O)c1ccc(O)c(Cl)c1 | 172 to 174 °C
* Nc1sc2c(c1C(=O)c1cccc(C(F)(F)F)c1)CCN(CCCc1ccccc1)C2 | 176 to 178 °C
* O=c1c(CCCCCCCc2ccncc2)cc2cccnc2n1-c1cccc([N+](=O)[O-])c1 | 189 to 192 °C
* NCC1=C(CCC(=O)O)CC=CC1 | 228 to 229 °C
* Cc1cc(C)n(C)c1C(=O)c1ccc(Cl)cc1Cl | 96 to 98 °C
* Nc1ncnc2c1c(-c1ccc(Oc3ccccc3)cc1)cn2C1CCC(=O)CC1 | 252 to 254 °C
* Cc1cccc(C=Cc2ccncc2)n1 | 72 to 73 °C
* CCc1ncnc2cc(OC)c(OCC3CO3)cc12 (centres undefined) | 120 to 122 °C
* Cn1c(C(F)(F)F)cc(=O)n(-c2ccc(Cl)c3c2OC(C)(C)C3)c1=O | 152 to 153 °C
* O=C(CNC(=O)c1ccc(F)cc1)c1ccoc1 | 142 to 143 °C
* CCOC(=O)c1c(-c2ccc(F)cc2)nc(-c2ccccc2)nc1C(C)C | 97 to 99 °C
